# Tested on: human fibroblast
# Method notes: in vitro
# Condition summary: human
The reader will find reported concentrations at which not toxic, human fibroblast cytotoxicity testing values listed item by item below.

Example entries and their recorded answers appear below.
{"columns": ["Molecule", "Test system", "Result"],
 "data": [
  ["O=C(Cc1ccc(Oc2nc3ccc(F)cc3s2)cc1)N1CCCC1 [NZ-490]", "human fibroblast", "≥ 100 µM"],
  ["CC(C)NC(=O)C(C)c1ccc(Oc2nc3ccc(Cl)cc3s2)cc1 (stereo not shown) [NZ-327]", "human fibroblast", "≥ 100 µM"],
  ["CC(C)NC(=O)Nc1ccc(Oc2nc3cc(F)c(F)cc3s2)cc1 [NZ-382]", "human fibroblast", "≥ 100 µM"],
  ["CC(C(=O)N1CCNCC1)c1ccc(Oc2nc3cc(F)c(F)cc3s2)cc1 (stereo not shown) [NZ-489]", "human fibroblast", "≥ 100 µM"],
  ["CONC(=O)C(O)c1ccc(Oc2nc3ccc(Cl)cc3s2)cc1 (stereo not shown) [NZ-338]", "human fibroblast", "≥ 100 µM"]
]}

Find the recorded concentrations at which not toxic, human fibroblast cytotoxicity testing belonging to COC(=O)Cn1ccc(Oc2nc3ccc(Cl)cc3s2)cc1=O [NZ-396] and report it.
≥ 100 µM

Find the recorded concentrations at which not toxic, human fibroblast cytotoxicity testing belonging to COc1ccc2nc(Oc3ccc(C(C)C(=O)O)cc3)sc2c1 (stereo not shown) [NZ-334] and report it.
≥ 100 µM

Find the recorded concentrations at which not toxic, human fibroblast cytotoxicity testing belonging to O=C(Cc1ccc(Oc2nc3ccc(F)cc3s2)cc1)N1CCCCC1 [NZ-471] and report it.
≥ 100 µM

Find the recorded concentrations at which not toxic, human fibroblast cytotoxicity testing belonging to CC(C)(C)OC(=O)NCC(=O)Nc1ccc(Oc2nc3ccc(F)cc3s2)cc1 [NZ-415] and report it.
≥ 100 µM

Find the recorded concentrations at which not toxic, human fibroblast cytotoxicity testing belonging to CONC(=O)C(C)c1ccc(Oc2nc3ccc(F)cc3s2)cc1 (stereo not shown) [NZ-330] and report it.
≥ 100 µM

From: patent US11083717B2
